- System: HT-29
- test method notes: Cytotoxicity against human HT-29 cells after 6 days by MTT assay
- Assay type: functional, cell-based
- experimental context: HT-29, 144 h
Binarize IC50 at 10 µg/mL; below is True, at or above is False.

>>> category_label("COc1cc2ccnc3c2c(c1OC)NC=C3")
"True"
>>> category_label("CCCCCCCCCCCCCCCCCC(=O)N1CCc2cc(OC)c(OC)c3nccc1c23")
"False"
>>> category_label("CCCCCC(=O)Oc1c(OC)cc2ccnc3c2c1N(C)C=C3")
"False"
>>> category_label("CCCCC(=O)Oc1c(OC)cc2ccnc3c2c1N(C)C=C3")
"True"
>>> category_label("CCCCCCCCCCCCCCCCCC(=O)Oc1c(OC)cc2ccnc3c2c1N(C)C=C3")
"False"
>>> category_label("CCCCCCCCC(=O)Oc1c(OC)cc2ccnc3c2c1N(C)C=C3")
"True"
>>> category_label("CCCCCC(=O)N1CCc2cc(OC)c(OC)c3nccc1c23")
"False"
>>> category_label("CCCCCCCCCCCCCCCC(=O)Oc1c(OC)cc2ccnc3c2c1N(C)C=C3")
"True"
>>> category_label("COC1=Cc2ccnc3c2C1=C(OC)NC=C3")
"False"
>>> category_label("CCCCCCCCCCCCCC(=O)Oc1c(OC)cc2ccnc3c2c1N(C)C=C3")
"True"
>>> category_label("COc1cc2c3c(ccnc3c1OC)N(C(C)=O)CC2")
"False"
>>> category_label("CCCCCCCCCCCC(=O)Oc1c(OC)cc2ccnc3c2c1N(C)C=C3")
"True"
>>> category_label("COc1cc2ccnc3c2c(c1O)N(C)C=C3")
"True"
>>> category_label("CCC(=O)Oc1c(OC)cc2ccnc3c2c1N(C)C=C3")
"False"
>>> category_label("CCCCCCCCCC(=O)Oc1c(OC)cc2ccnc3c2c1N(C)C=C3")
"True"
>>> category_label("CCCCCCCCCCCC(=O)N1CCc2cc(OC)c(OC)c3nccc1c23")
"True"
>>> category_label("CCCCCCCC(=O)Oc1c(OC)cc2ccnc3c2c1N(C)C=C3")
"False"
>>> category_label("COc1cc2c3c(ccnc3c1OC)NCC2 [DIHYDROAAPTAMINE]")
"False"
>>> category_label("COc1cc2ccnc3c2c(c1OC(C)=O)N(C)C=C3")
"False"
>>> category_label("CCCCCCC(=O)Oc1c(OC)cc2ccnc3c2c1N(C)C=C3")
"False"
